# SYSTEM_NAME: Rac-1 (Homo sapiens)
# PROTOCOL: Ras GTP binding domain inhibition assay (labeled-GTP competition, cell-free)
# Set-up: made in house
# CONDITION_INFO: with SOS, read-out: Rac-1 + SOS: % inh.
READOUT_TYPE: inhibition at 20 µM

# COMPOUND, SYSTEM_NAME, READOUT_TYPE, OBS_VALUE
measured = [
    ("CO[C@H]1C[C@H](Nc2nc(-c3nccn3C)nc3sc(-c4ccn(C(C)C)n4)c(C)c23)C[C@H]1OC [Compound 43]", "Rac-1 (Homo sapiens)", "inhibition at 20 µM", "51 to 75%"),
    ("COC1CCCN(c2nc(-c3ccccn3)nc3sc(-c4ccn(C(C)C)n4)c(C)c23)C1 (racemic) [Compound 70]", "Rac-1 (Homo sapiens)", "inhibition at 20 µM", "26 to 50%"),
    ("Cc1c(-c2ccn(C(C)C)n2)sc2nc(-c3nccn3C)nc(NCCc3nnn[nH]3)c12 [Compound 46]", "Rac-1 (Homo sapiens)", "inhibition at 20 µM", "76 to 100%"),
    ("COC1CCN(c2nc(-c3nccn3C)nc3sc(-c4ccn(C(C)C)n4)c(C)c23)C1 (racemic) [Compound 34]", "Rac-1 (Homo sapiens)", "inhibition at 20 µM", "76 to 100%"),
]
